Test system: Rattus norvegicus
Assay: Anti-inflammatory activity in Rattus norvegicus Wistar albino (rat) assessed as inhibition of carrageenan-induced paw edema at 20 mg/kg, po administered 30 min before carrageenan challenge measured after 0.5 hr relative to control
Format: functional
Measured inhibition in vivo at 20 mg/kg, listed per entry.
# output: bare number, implied unit %

These solved cases illustrate the format of a correct answer.
>>> result_value("CCCc1nn2c(C(C)c3ccc(CC(C)C)cc3)nnc2s1 (stereo unspecified)")
10
>>> result_value("CC(C)Cc1ccc(C(C)c2nnc3sc(-c4ccccc4Cl)nn23)cc1 (stereo unspecified)")
64
>>> result_value("Cc1nn2c(C(C)c3ccc(CC(C)C)cc3)nnc2s1 (stereo unspecified)")
64
>>> result_value("CCc1nn2c(C(C)c3ccc(CC(C)C)cc3)nnc2s1 (stereo unspecified)")
5
>>> result_value("CC(C)Cc1ccc(C(C)C(=O)O)cc1 (stereo unspecified)")
20

// map `O=C(O)Cc1ccccc1Nc1c(Cl)cccc1Cl` to recorded inhibition in vivo at 20 mg/kg (system: Rattus norvegicus)
82

----------
Measured inhibition in vivo at 20 mg/kg, listed per entry.
System: Rattus norvegicus
Assay: Anti-inflammatory activity in Rattus norvegicus Wistar albino (rat) assessed as inhibition of carrageenan-induced paw edema at 20 mg/kg, po administered 30 min before carrageenan challenge measured after 1 hr relative to control
Assay type: functional
# output: bare number, implied unit %

>>> result_value("CC(C)Cc1ccc(C(C)c2nnc3sc(-c4ccccc4Cl)nn23)cc1 (configuration not stated)")
43
>>> result_value("CCCc1nn2c(C(C)c3ccc(CC(C)C)cc3)nnc2s1 (configuration not stated)")
15
>>> result_value("CCc1nn2c(C(C)c3ccc(CC(C)C)cc3)nnc2s1 (configuration not stated)")
22
>>> result_value("O=C(O)Cc1ccccc1Nc1c(Cl)cccc1Cl [DICLOFENAC]")
65
>>> result_value("CC(C)Cc1ccc(C(C)c2nnc3sc(-c4ccc([N+](=O)[O-])cc4Cl)nn23)cc1 (configuration not stated)")
4
>>> result_value("CC(C)Cc1ccc(C(C)C(=O)O)cc1 (configuration not stated) [IBUPROFEN]")
18

Proceeding to the next compound to report its inhibition in vivo at 20 mg/kg.
What inhibition in vivo at 20 mg/kg value was documented for this compound, Cc1nn2c(C(C)c3ccc(CC(C)C)cc3)nnc2s1 (configuration not stated) ?
43

----------
Measured Activity, listed per entry.
Test system: Mus musculus
Assay: Analgesic activity in po dosed Mus musculus Swiss albino (mouse) assessed as increase in reaction time after 1 hr by tail-flick method relative to control
Assay type: functional
# output: bare number, implied unit %

These solved cases illustrate the format of a correct answer.
>>> result_value("CC(C)Cc1ccc(C(C)c2nnc3sc(-c4ccc([N+](=O)[O-])cc4Cl)nn23)cc1 (centres undefined)")
31.79
>>> result_value("Cc1nn2c(C(C)c3ccc(CC(C)C)cc3)nnc2s1 (centres undefined)")
32
>>> result_value("CC(C)Cc1ccc(C(C)c2nnc3sc(-c4ccccc4Cl)nn23)cc1 (centres undefined)")
39.74

Proceeding to the next molecule to report its Activity.
What Activity value was documented for this molecule, CCc1nn2c(C(C)c3ccc(CC(C)C)cc3)nnc2s1 (centres undefined) ?
16.33

----------
Measured inhibition, listed per entry.
Tested on: Radical scavenging activity
Test: Antioxidant activity assessed as DPPH free radical scavenging activity at 100 ug/ml after 30 min
Format: functional
# output: bare number, implied unit %

>>> result_value("Cc1cc(C(C)(C)C)c(O)c(C(C)(C)C)c1")
84.8
>>> result_value("CC(C)Cc1ccc(C(C)c2nnc3sc(-c4ccc([N+](=O)[O-])cc4Cl)nn23)cc1 (stereo unspecified)")
1.71
>>> result_value("Cc1nn2c(C(C)c3ccc(CC(C)C)cc3)nnc2s1 (stereo unspecified)")
7.9
>>> result_value("CC(C)Cc1ccc(C(C)c2nnc3sc(-c4ccccc4Cl)nn23)cc1 (stereo unspecified)")
4.46
>>> result_value("CCc1nn2c(C(C)c3ccc(CC(C)C)cc3)nnc2s1 (stereo unspecified)")
5.61

What inhibition value was documented for this compound, CCCc1nn2c(C(C)c3ccc(CC(C)C)cc3)nnc2s1 (stereo unspecified) ?
77.9
